The measurements presented in this section are drawn from patent US20240116985A1.

Property: IC50; scope: individual compounds
measured-target: full-length beta-Catenin (Uniprot ID P35222) (Homo sapiens, UniProt P35222)
Construct: 10 nM full-length beta-Catenin (Uniprot ID P35222)
Sequence (P35222 whole entry): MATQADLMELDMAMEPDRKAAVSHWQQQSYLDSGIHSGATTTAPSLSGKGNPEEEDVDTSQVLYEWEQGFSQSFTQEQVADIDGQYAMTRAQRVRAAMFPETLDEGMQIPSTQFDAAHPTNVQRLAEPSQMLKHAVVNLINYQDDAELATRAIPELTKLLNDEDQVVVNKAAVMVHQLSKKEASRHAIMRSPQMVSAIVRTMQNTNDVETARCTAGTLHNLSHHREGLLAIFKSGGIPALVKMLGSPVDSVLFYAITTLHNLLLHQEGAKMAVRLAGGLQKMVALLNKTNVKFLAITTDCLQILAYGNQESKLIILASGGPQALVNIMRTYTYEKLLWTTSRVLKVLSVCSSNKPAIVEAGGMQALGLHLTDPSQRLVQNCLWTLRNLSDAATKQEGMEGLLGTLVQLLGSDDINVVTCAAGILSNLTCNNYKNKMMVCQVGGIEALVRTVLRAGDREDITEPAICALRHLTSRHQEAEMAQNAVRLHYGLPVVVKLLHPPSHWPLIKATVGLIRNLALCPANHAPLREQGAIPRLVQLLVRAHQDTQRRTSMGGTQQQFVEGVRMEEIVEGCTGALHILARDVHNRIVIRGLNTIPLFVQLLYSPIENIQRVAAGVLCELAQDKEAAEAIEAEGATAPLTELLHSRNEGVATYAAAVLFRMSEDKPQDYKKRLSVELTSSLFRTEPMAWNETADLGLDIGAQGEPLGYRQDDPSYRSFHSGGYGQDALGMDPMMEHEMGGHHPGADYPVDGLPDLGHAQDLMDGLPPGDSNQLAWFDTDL
test-protocol: Fluorescence polarization IC50 (beta-catenin / 5FAM-TCF4 10-53 competition)
Type: binding
measurement-conditions: fluorescence polarization; read-out: beta-Catenin FP IC50
Just the number please, in µM, no unit attached.

Here are 4 compounds together with their reported answers.
CC(=O)N1CCC[C@]12CC=CCCCC1(CCCC=CCCCOC(=O)N3CC[C@@](C(=O)N[C@@H](Cc4ccsc4)C(=O)N[C@@H](Cc4ccc5ccccc5c4)C(=O)N[C@@H](CCC(N)=O)C(N)=O)(C3)NC(=O)[C@H]([C@@H](C)O)NC(=O)[C@H](Cc3ccccc3)NC(=O)[C@H](C)NC(=O)[C@H](C)NC(=O)[C@H](CC(=O)O)NC(=O)[C@H](CC(=O)O)NC1=O)NC(=O)[C@H](CC(C)(C)C)NC(=O)[C@H](CC(=O)O)NC2=O (some centres unmarked) [I-1233]	0.024
CC(=O)N1CCC[C@]12CC=CCCCC1(CCCC=CCCCOC(=O)N3CC[C@@](C(=O)N[C@@H](Cc4ccsc4)C(=O)N[C@@H](Cc4csc5ccccc45)C(=O)N[C@@H](CCC(N)=O)C(N)=O)(C3)NC(=O)[C@H](CC(N)=O)NC(=O)[C@H](Cc3ccccc3)NC(=O)[C@H](C)NC(=O)[C@H](C)NC(=O)[C@H](Cc3ccc(O)cc3)NC(=O)[C@H](CC(N)=O)NC1=O)NC(=O)[C@H](CC(C)(C)C)NC(=O)[C@H](CC(=O)O)NC2=O (some centres unmarked) [I-1568]	7.18
CC(=O)N1CCC[C@]12CC1OC1CCCC1(CCCC=CCCCOC(=O)N3CC[C@@](C(=O)N[C@@H](Cc4ccsc4)C(=O)N[C@@H](Cc4csc5ccccc45)C(=O)N[C@@H](CCC(N)=O)C(N)=O)(C3)NC(=O)[C@H](CC(C)C)NC(=O)[C@H](Cc3ccccc3)NC(=O)[C@H](C)NC(=O)[C@H](C)NC(=O)[C@H](CN(CC(=O)O)CC(F)(F)F)NC(=O)[C@H](CC(=O)O)NC1=O)NC(=O)[C@H](CC(C)(C)C)NC(=O)[C@H](CC(=O)O)NC2=O (some centres unmarked) [I-2594]	0.47
CC(=O)N1CCC[C@]12CC=CCCCC1(CCCC=CCCCOC(=O)N3CC[C@@](C(=O)N[C@@H](Cc4ccsc4)C(=O)N[C@@H](Cc4csc5ccccc45)C(=O)N[C@@H](CCC(N)=O)C(N)=O)(C3)NC(=O)[C@H](CC(N)=O)NC(=O)[C@H](Cc3ccccc3)NC(=O)[C@H](C)NC(=O)[C@H](C)NC(=O)[C@H]([C@@H](C)O)NC(=O)[C@H](CC(N)=O)NC1=O)NC(=O)[C@H](C)NC(=O)[C@H](CC(=O)O)NC2=O (some centres unmarked) [I-2003]	1.02

-- ask Which IC50 is listed for CC(=O)N1CCC[C@]12CC=CCCCC1(CCCC=CCCCOC(=O)N3CC[C@@](C(=O)N[C@@H](Cc4ccsc4)C(=O)N[C@@H](Cc4csc5ccccc45)C(=O)N[C@@H](CCC(N)=O)C(N)=O)(C3)NC(=O)[C@H](CC(C)C)NC(=O)[C@H](Cc3ccccc3)NC(=O)[C@H](C)NC(=O)[C@H](C)NC(=O)[C@H](Cn3cc(CC(C)(C)C(=O)O)nn3)NC(=O)[C@H](CC(=O)O)NC1=O)NC(=O)[C@H](CC(C)(C)C)NC(=O)[C@H](CC(=O)O)NC2=O (some centres unmarked) [I-2083] ?
-- reply 0.005
